Assay: Evaluation of hydrosolubility: presence or absence of precipitate in buffered solutions
Details: 500 μM in PBS buffer, diluted from DMSO stock solution
experimental_readout: hydrosolubility (presence or absence of precipitate)

> print(dat)
                                   compound  experimental.value
1  CCCCCCCC(=O)OCC1CN(CCCCS(=O)(=O)O)CCN1C(=O)Oc1ccc2c(C)cc(=O)oc2c1 (stereo not shown)             soluble
2  Cc1cc(=O)oc2cc(OC(=O)N3CCCCC3CNC(=O)Cc3ccccc3)ccc12 (stereo not shown) [Compound 15, reference compound]           insoluble
3  COCCOCCOCCn1cc(CCC(=O)N2CCN(C(=O)Oc3ccc([N+](=O)[O-])cc3)C(CNC(=O)Cc3ccccc3)C2)nn1 (stereo not shown)             soluble
4  CCCCCCCC(=O)OCC1CNCCN1C(=O)Oc1ccc2c(C)cc(=O)oc2c1 (stereo not shown)           insoluble

###

Test: Evaluation of hydrosolubility: presence or absence of precipitate in buffered solutions
Settings: 250 μM in PBS buffer, diluted from DMSO stock solution
experimental_readout: hydrosolubility (presence or absence of precipitate)

> print(dat)
                                   molecule  experimental.value
1  COCCOCCOCCn1cc(CCC(=O)N2CCN(C(=O)Oc3ccc([N+](=O)[O-])cc3)C(CNC(=O)Cc3ccccc3)C2)nn1 (stereo not shown)             soluble
2  COCCOCCOCCn1cc(CCC(=O)N2CCN(C(=O)Oc3ccc(Cl)cc3-c3nc4ccc(Cl)cc4c(=O)[nH]3)C(CNC(=O)Cc3ccccc3)C2)nn1 (stereo not shown)             soluble
3  COCCOCCOCCn1cc(CCC(=O)N2CCN(C(=O)Oc3ccc4c(C)cc(=O)oc4c3)C(CNC(=O)Cc3ccccc3)C2)nn1 (stereo not shown)             soluble

###

Experiment: Evaluation of hydrosolubility: presence or absence of precipitate in buffered solutions
Conditions: 250 μM in PBS buffer, diluted from DMSO stock solution
experimental_readout: hydrosolubility (presence or absence of precipitate)

> print(dat)
                                   compound  experimental.value
1  CCCCCCCC(=O)OCC1CNCCN1C(=O)Oc1ccc2c(C)cc(=O)oc2c1 (stereo not shown)             soluble
2  Cc1cc(=O)oc2cc(OC(=O)N3CCNCC3CNC(=O)Cc3ccccc3)ccc12 (stereo not shown)             soluble
3  CCCCCCCC(=O)OCC1CN(CCCCS(=O)(=O)O)CCN1C(=O)Oc1ccc2c(C)cc(=O)oc2c1 (stereo not shown)             soluble

###

Assay: Evaluation of hydrosolubility: presence or absence of precipitate in buffered solutions
Details: 1 mM in PBS buffer, diluted from DMSO stock solution
experimental_readout: hydrosolubility (presence or absence of precipitate)

The examples below pair each entry with its known result.
> print(dat)
                                   molecule  experimental.value
1  CCCCCCCC(=O)OCC1CN(CCCCS(=O)(=O)O)CCN1C(=O)Oc1ccc2c(C)cc(=O)oc2c1 (centres unmarked)             soluble
2  COCCOCCOCCn1cc(CCC(=O)N2CCN(C(=O)Oc3ccc([N+](=O)[O-])cc3)C(CNC(=O)Cc3ccccc3)C2)nn1 (centres unmarked)             soluble
3  Cc1cc(=O)oc2cc(OC(=O)N3CCCCC3CNC(=O)Cc3ccccc3)ccc12 (centres unmarked) [Compound 15, reference compound]           insoluble
4  Cc1cc(=O)oc2cc(OC(=O)N3CCNCC3CNC(=O)Cc3ccccc3)ccc12 (centres unmarked)             soluble
5  CCCCCCCC(=O)OCC1CCCCN1C(=O)Oc1ccc2c(C)cc(=O)oc2c1 (centres unmarked) [Compound 27, reference compound]           insoluble

Give hydrosolubility (presence or absence of precipitate) for all molecules that follow.
1. CCCCCCCC(=O)OCC1CNCCN1C(=O)Oc1ccc2c(C)cc(=O)oc2c1 (centres unmarked)
2. COCCOCCOCCn1cc(CCC(=O)N2CCN(C(=O)Oc3ccc4c(C)cc(=O)oc4c3)C(CNC(=O)Cc3ccccc3)C2)nn1 (centres unmarked)

[out]
1: insoluble; 2: soluble

[in] # query: hydrosolubility (presence or absence of precipitate) of entry COCCOCCOCCn1cc(CCC(=O)N2CCN(C(=O)Oc3ccc(Cl)cc3-c3nc4ccc(Cl)cc4c(=O)[nH]3)C(CNC(=O)Cc3ccccc3)C2)nn1 (centres unmarked)
[out] insoluble
